These entries and their values trace back to patent US20230286973A1.

# Test system: TNFα-FL/Gaussia Luciferase
# assay_overview: Dox Induced TNFα-FL-Gluc Assay
# Assay type: cell-based
# condition_notes: ratio of TNFaFLGluc IC50 to PD1ssGluc IC50
measurement_label: 24 hr Dox Inducible TNFaFLGluc 293FRT/TO: TNF/PD1

Field: example entries. Status: answers known.
INSERT INTO measurements (compound, result) VALUES
  ('CC(C#N)n1cnc(/C=C/c2csc(NC(=O)c3cccn3Cc3ccnc(F)c3)n2)c1 (stereo not shown)', '>52.5'),
  ('O=C(Nc1nc(/C=C/c2ncn3c2CCCC3)cs1)c1cccn1Cc1ccnc(F)c1', '>239'),
  ('CCn1cnc(/C=C/c2csc(NC(=O)c3cccn3Cc3ccncc3)n2)c1', '>209');

API: the following record is the query input.
Quick one: 24 hr Dox Inducible TNFaFLGluc 293FRT/TO: TNF/PD1 of "O=C(Nc1nc(/C=C/c2cn(C3CCOCC3)cn2)cs1)c1cccn1Cc1ccnc(F)c1" ?
>345

----------
Please respond with reported 24 hr Dox Inducible TNFaFLGluc 293FRT/TO: TNF/PD1 for every item in the list.
# System: TNFα-FL/Gaussia Luciferase
# assay_overview: Dox Induced TNFα-FL-Gluc Assay
# Type: cell-based
# condition_notes: ratio of TNFaFLGluc IC50 to PD1ssGluc IC50

INSERT INTO results (molecule, result) VALUES
  ('Cc1nc(/C=C/c2csc(NC(=O)c3cccn3Cc3ccncc3)n2)co1 [Compound B2]', '>114'),
  ('CC(C)n1cc(/C=C/c2csc(NC(=O)c3cccn3Cc3ccnc(F)c3)n2)nc1CO [Compound B103]', '>2.49'),
  ('O=C(Nc1nc(/C=C/c2coc(C3CC3)n2)cs1)c1cccn1Cc1ccncc1 [Compound B40]', '>113');

// below: 24 hr Dox Inducible TNFaFLGluc 293FRT/TO: TNF/PD1 requested for another molecule
# get_value(readout= 24 hr Dox Inducible TNFaFLGluc 293FRT/TO: TNF/PD1, system= TNFα-FL/Gaussia Luciferase) for CC(=O)N1CCOC(/C=C/c2csc(NC(=O)c3cccn3Cc3ccncc3)n2)C1 (stereo not shown) [Compound B10]
>1.25

----------
# Tested on: multiple myeloma cell line NCI-H929
# assay_overview: H929 Cell Viability Assay
# Format: cell-based, human
# condition_notes: Homo sapiens, NCI-H929, 48 h, NCI-H929 cells, Celltiter-Glo
Hi there, I'd appreciate the recorded pEC50 for every entry that follows.
One number for each entry, as −log10 of the molar value.

Look over these answered cases.
INSERT INTO results (molecule, measurement_label, numeric_result) VALUES
  ('C#CCn1cccc1C(=O)Nc1nc([C@H]2CCCN2c2ccccc2)cs1 [Compound C33]', 'pEC50', 4.62),
  ('N#CC[C@@H](O)Cn1cccc1C(=O)Nc1nc([C@H]2CCCN2c2ccccc2)cs1 [Compound C112]', 'pEC50', 4.68),
  ('CC(c1ccncc1)n1cccc1C(=O)Nc1nc([C@H]2CCCN2c2ccccc2)cs1 (stereo partly drawn) [Compound E13]', 'pEC50', 5.23);

Please supply pEC50 for each of the following items, keeping them in order.
1. O=C(Nc1nc([C@@H]2CCN(c3ccccn3)C2)cs1)c1cccn1Cc1ccncc1 [Compound E43]
2. O=C(Nc1nc([C@H]2CCCN2c2ccc(OC3CCN(C(=O)CO)CC3)cc2)cs1)c1cccn1Cc1ccnc(F)c1 [Compound A139]

1: 4.78; 2: 6.16

----------
For each of the molecules below, state its Liver Microsome Stability (Multiple Species): Mouse - % Remaining after 30 min w/NADPH.
# assay_overview: Liver Microsome Stability Assay (mouse)
# condition_notes: mouse liver microsomes, with NADPH, 1.0 uM compound
Give bare numbers, in %.

INSERT INTO results (molecule, quantity_unit, numeric_result) VALUES
  ('Cc1cc(C(=O)Nc2nc([C@H]3CCCN3c3ccccc3)cs2)n(Cc2ccncc2)c1', '%', 3.39),
  ('Cc1cnccc1Cn1cccc1C(=O)Nc1nc([C@H]2CCCN2c2ccccc2)cs1', '%', 3.47),
  ('O=C(Nc1nc(/C=C/c2c[nH]cn2)cs1)c1cccn1Cc1ccncc1', '%', 26.5),
  ('CC1CCn2cnc(/C=C/c3csc(NC(=O)c4cccn4Cc4ccnc(F)c4)n3)c2C1 (stereo not drawn)', '%', 13.8),
  ('CC(=O)N1CCC(Oc2ccc(N3CCC[C@@H]3c3csc(NC(=O)c4cccn4Cc4ccnc(F)c4)n3)cn2)CC1', '%', 16.9);

Hi, could you look up Liver Microsome Stability (Multiple Species): Mouse - % Remaining after 30 min w/NADPH for each item in my list?
1. CC1CCCn2cnc(/C=C/c3csc(NC(=O)c4cccn4Cc4ccnc(F)c4)n3)c21 (stereo not drawn)
2. O=C(Nc1nc(/C=C/c2cn(C3CCCCC3)cn2)cs1)c1cccn1CC1CCOCC1

1. 9.83
2. 0.54

For every listed record, write down its Liver Microsome Stability (Multiple Species): Mouse - % Remaining after 30 min w/NADPH.
1. CC1CCc2c(/C=C/c3csc(NC(=O)c4cccn4Cc4ccnc(F)c4)n3)ncn2C1 (stereo not drawn)
2. O=C(Nc1nc([C@H]2CCCN2c2ccc(OC3CN(C(=O)CO)C3)cc2)cs1)c1cccn1Cc1ccnc(F)c1
3. CCn1cnc(/C=C/c2csc(NC(=O)c3cccn3Cc3ccnc(F)c3)n2)c1C
4. C[C@H](N)c1ccc(N2CCC[C@@H]2c2csc(NC(=O)c3cccn3Cc3ccnc(F)c3)n2)cc1
5. CC(=O)N1CCC(Oc2ccc(N3CCC[C@@H]3c3csc(NC(=O)c4cccn4Cc4ccnc(F)c4)n3)nc2)CC1
6. Cc1ccc(S(=O)(=O)N(C(=O)c2cccn2Cc2ccncc2)c2nc([C@H]3CCCN3S(=O)(=O)c3ccc(C)cc3)cs2)cc1

[6.81, 31.2, 15.8, 94.3, 18.3, 1.28]

Here are 8 molecules. What values of Liver Microsome Stability (Multiple Species): Mouse - % Remaining after 30 min w/NADPH were reported for them?
1. O=C(Nc1nc(-c2cccc(-c3ccccn3)c2)cs1)c1cccn1Cc1ccnc(F)c1
2. CC(=O)Nc1ccc(N2CCC[C@@H]2c2csc(NC(=O)c3cccn3Cc3ccnc(F)c3)n2)cc1F
3. Cc1cccc2nc(/C=C/c3csc(NC(=O)c4cccn4Cc4ccnc(F)c4)n3)cn12
4. N#CCC1(Cn2cccc2C(=O)Nc2nc([C@H]3CCCN3c3ccccc3)cs2)CCC1
5. N#CC[C@H](O)Cn1cccc1C(=O)Nc1nc([C@H]2CCCN2c2ccccc2)cs1
6. COC(=O)Nc1ccc(N2CCC[C@@H]2c2csc(NC(=O)c3cc(C)cn3Cc3ccnc(F)c3)n2)cc1
7. O=C(Nc1nc([C@H]2CCCN2c2ccc(OC3CCNC3)cc2)cs1)c1cccn1Cc1ccnc(F)c1 (stereo partly drawn)
8. CC(C)n1ccc(/C=C/c2csc(NC(=O)c3cccn3Cc3ccnc(F)c3)n2)n1

7.13
1.18
2.19
0.81
19.8
44.9
71.9
3.41

// each listed molecule needs a value for Liver Microsome Stability (Multiple Species): Mouse - % Remaining after 30 min w/NADPH
1. O=C(Nc1nc([C@H]2CCCN2c2ccccc2)cs1)c1cccn1CC1CCOC1 (stereo partly drawn)
2. NC(=O)c1cc(C(=O)Nc2nc([C@H]3CCCN3c3ccccc3)cs2)n(Cc2ccnc(F)c2)c1
3. O=C(Nc1nc([C@H]2CCCN2c2ccccc2)cs1)c1cccn1CCCC1CCOC1 (stereo partly drawn)

21
48.9
15.8

----------
# Tested on: multiple myeloma cell line NCI-H929
# assay_overview: H929 Cell Viability Assay
# Assay type: cell-based, human
# condition_notes: Homo sapiens, NCI-H929, 48 h, NCI-H929 cells, Celltiter-Glo
Can you tell me EC50 for the items I'm about to list?
Answers are plain numbers, in µM.

INSERT INTO measurements (compound, measurement_label, numeric_result) VALUES
  ('CC(C)c1cccnc1/C=C/c1csc(NC(=O)c2cccn2Cc2ccncc2)n1', 'EC50', 21.5),
  ('O=C(Nc1nc([C@H]2CCCN2c2ccc(OC3CN(C(=O)C4CC4)C3)cc2)cs1)c1cccn1Cc1ccnc(F)c1', 'EC50', 1.23),
  ('CC(C)n1cnc(/C=C/c2csc(NC(=O)c3cccn3Cc3cc(F)nc(F)c3)n2)c1', 'EC50', 10.1);

For every record below, what is its EC50?
1. O=C(Nc1nc([C@H]2CCN(c3ccccn3)C2)cs1)c1cccn1Cc1ccncc1
2. CC(=O)N1CCC(Oc2ccc(N3CCC[C@@H]3c3csc(NC(=O)c4cc(C)cn4Cc4ccnc(F)c4)n3)cc2)CC1
3. CC(C)n1cncc1/C=C/c1csc(NC(=O)c2cccn2Cc2ccncc2)n1

[22.9, 0.867, 16.3]

----------
# assay_overview: Liver Microsome Stability Assay (monkey)
# condition_notes: monkey liver microsomes, with NADPH, 1.0 uM compound
measurement_label: Liver Microsome Stability (Multiple Species): Monkey - % Remaining after 30 min w/NADPH

Use the examples below as a reference point.
INSERT INTO results (molecule, result) VALUES
  ('Cc1cnc(/C=C/c2csc(NC(=O)c3cccn3Cc3ccncc3)n2)o1 [Compound B35]', '1.04%'),
  ('O=C(Nc1nc(/C=C/C2CN(S(=O)(=O)c3ccccc3)CCO2)cs1)c1cccn1Cc1ccncc1 (stereo not drawn) [Compound B9]', '0.17%');

Continue with the molecule presented below.
Requested field: Liver Microsome Stability (Multiple Species): Monkey - % Remaining after 30 min w/NADPH. Item: O=C(Nc1nc([C@H]2CCCN2c2ccc(OC3CCNC3)cc2)cs1)c1cccn1Cc1ccnc(F)c1 (stereo partly drawn) [Compound A80]
17.6%
